# measurement.description: Inhibition of soybean 15-lipoxygenase by MBTH-DMAB method
# Parameters: species or system Glycine max
observable: IC50 (µM)

[
  {
    "molecule": "CC(C)=CCC/C(C)=C/CC/C(C)=C/COc1cccc2ccc(=O)oc12",
    "unit.name": "µM",
    "measured.result": 5.8
  },
  {
    "molecule": "CC(C)=CCOc1cc2ccccc2oc1=O",
    "unit.name": "µM",
    "measured.result": 54.4
  },
  {
    "molecule": "O=C(O)/C=C/c1ccc(O)c(O)c1 [CAFFEIC ACID]",
    "unit.name": "µM",
    "measured.result": 39.4
  },
  {
    "molecule": "CC(C)=CCC/C(C)=C/CC/C(C)=C/COc1cccc2oc(=O)ccc12",
    "unit.name": "µM",
    "measured.result": 0.8
  }
]

[I] CC(C)=CCC/C(C)=C/CC/C(C)=C/COc1ccc2oc(=O)ccc2c1
[II] CC(C)=CCOc1ccc2ccc(=O)oc2c1 [7-PRENYLOXYCOUMARIN]
[III] CC(C)=CCC/C(C)=C/CC/C(C)=C/COc1cc(=O)oc2ccccc12
Inquiry: Kindly order the items shown according to IC50, from the highest value down. Field: ranking. Enter the labels in the order requested.
Reply text: II, III, I

[A] CC(C)=CCC/C(C)=C/COc1cccc2oc(=O)ccc12
[B] CC(C)=CCOc1ccc2oc(=O)ccc2c1
Inquiry: When A and B are compared, which has the higher number for IC50? State your choice using its label.
Reply text: B

[P] Cc1nc(N2CCN(C)CC2)nc2c1Nc1ccccc1S2
[Q] CC(C)=CCC/C(C)=C/COc1cc2ccccc2oc1=O
[R] CC(C)=CCC/C(C)=C/COc1ccc2oc(=O)ccc2c1
[S] CC(C)=CCOc1cccc2ccc(=O)oc12
[T] CC(C)=CCC/C(C)=C/CC/C(C)=C/COc1ccc2ccc(=O)oc2c1 [UMBELLIPRENIN]
Inquiry: Form: Sort by [IC50] Order [ ascending ] Field: ranking. Enter the labels in the order requested.
Reply text: T, Q, R, P, S
(T: 3.1 µM, Q: 4.7 µM, R: 9.6 µM, P: 21.2 µM, S: 46.5 µM)
